# test_target: Induced myeloid leukemia cell differentiation protein Mcl-1 (Homo sapiens)
# assay_comment: Mcl-1/Noxa binding inhibitor potency, dose response, biochemical, TR-FRET (AID 1417)
# study_conditions: Mcl-1/Noxa peptide interaction, cell-free TR-FRET (terbium/rhodamine), 2 h; measured here: absolute IC50
Would you kindly list IC50 for each of these compounds?

Q: Consider the compound Cc1ccc(/C=C/C(=O)Nc2ccc([N+](=O)[O-])c(NC(=O)/C=C/c3ccc(C)o3)c2)o1 and give its measured IC50.
Result: < 0.4 µM

Q: // lookup IC50 for C=CCn1c(N2CCCCCC2)nc2c1c(=O)n(C)c(=O)n2C
Result: > 54 µM

Q: Requested field: IC50. Item: CN(C)c1ccc(N=c2sc3ccccc3n2C)cc1
Result: < 0.4 µM

Q: Suppose we examine the compound CN(C)c1ccc(C(CNC(=O)c2ccc(F)cc2)c2c[nH]c3ccccc23)cc1 (centres undefined) ; what IC50 value has been reported?
Result: > 54 µM
